# credit: patent US9527869B2

Target: PI3Kα (Homo sapiens, UniProt P42336)
Sequence (P42336 whole entry): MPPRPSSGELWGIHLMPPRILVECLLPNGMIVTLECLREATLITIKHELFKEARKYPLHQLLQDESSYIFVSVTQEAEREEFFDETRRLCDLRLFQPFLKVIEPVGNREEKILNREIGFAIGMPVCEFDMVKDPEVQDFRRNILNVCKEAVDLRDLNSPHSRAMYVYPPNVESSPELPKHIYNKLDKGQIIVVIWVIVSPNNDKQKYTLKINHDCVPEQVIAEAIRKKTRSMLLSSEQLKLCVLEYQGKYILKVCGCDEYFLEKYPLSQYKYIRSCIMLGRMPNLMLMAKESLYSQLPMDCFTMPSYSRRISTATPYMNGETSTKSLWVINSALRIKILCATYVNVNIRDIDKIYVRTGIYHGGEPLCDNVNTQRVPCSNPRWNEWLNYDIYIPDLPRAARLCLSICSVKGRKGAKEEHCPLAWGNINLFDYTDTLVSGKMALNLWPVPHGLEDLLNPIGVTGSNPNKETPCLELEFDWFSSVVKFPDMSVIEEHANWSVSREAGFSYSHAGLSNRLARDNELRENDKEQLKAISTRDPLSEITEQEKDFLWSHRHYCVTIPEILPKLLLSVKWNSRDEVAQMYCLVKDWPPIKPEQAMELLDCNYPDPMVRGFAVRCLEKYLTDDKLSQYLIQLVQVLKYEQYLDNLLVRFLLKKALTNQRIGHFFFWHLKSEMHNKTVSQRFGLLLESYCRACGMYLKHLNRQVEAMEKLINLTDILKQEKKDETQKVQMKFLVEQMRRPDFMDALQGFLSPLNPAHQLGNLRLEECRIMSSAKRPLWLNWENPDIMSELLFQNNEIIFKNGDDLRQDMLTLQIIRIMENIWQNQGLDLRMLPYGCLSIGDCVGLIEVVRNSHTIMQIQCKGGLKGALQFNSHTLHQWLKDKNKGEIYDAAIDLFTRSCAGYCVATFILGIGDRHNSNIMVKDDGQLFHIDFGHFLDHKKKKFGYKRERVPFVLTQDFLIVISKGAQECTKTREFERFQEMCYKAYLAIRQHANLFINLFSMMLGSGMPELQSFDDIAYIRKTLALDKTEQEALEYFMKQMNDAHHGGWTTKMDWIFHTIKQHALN
Sequence (P27986 whole entry partner): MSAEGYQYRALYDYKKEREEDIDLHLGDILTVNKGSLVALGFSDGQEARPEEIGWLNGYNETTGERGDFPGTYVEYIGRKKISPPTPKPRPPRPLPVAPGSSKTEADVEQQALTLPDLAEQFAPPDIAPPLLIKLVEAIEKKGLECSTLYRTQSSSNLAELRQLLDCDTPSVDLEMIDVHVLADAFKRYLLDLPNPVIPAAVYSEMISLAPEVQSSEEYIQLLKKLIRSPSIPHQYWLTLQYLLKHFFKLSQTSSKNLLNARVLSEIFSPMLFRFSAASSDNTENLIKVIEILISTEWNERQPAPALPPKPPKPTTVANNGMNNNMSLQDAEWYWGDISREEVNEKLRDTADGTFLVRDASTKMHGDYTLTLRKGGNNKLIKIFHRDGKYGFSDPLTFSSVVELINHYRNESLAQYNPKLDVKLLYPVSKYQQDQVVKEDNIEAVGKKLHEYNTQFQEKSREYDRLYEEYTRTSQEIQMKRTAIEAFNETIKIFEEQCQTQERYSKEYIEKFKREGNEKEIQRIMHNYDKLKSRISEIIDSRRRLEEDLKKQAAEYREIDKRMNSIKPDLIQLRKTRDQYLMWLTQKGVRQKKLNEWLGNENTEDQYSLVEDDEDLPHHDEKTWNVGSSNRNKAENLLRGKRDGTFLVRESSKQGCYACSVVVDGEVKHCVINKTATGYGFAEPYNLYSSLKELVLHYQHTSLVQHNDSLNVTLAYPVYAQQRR
Test: In vitro determination of the PI3K enzyme inhibitory activity in the cell free assay (ADP-Glo Kinase Assay), PI3Kα
Details: ATP 50 μM, read-out: PI3K alpha inhibition
Result Type: IC50

[[record]]
compound = "N#Cc1c(N)ncnc1NCc1cn2ccccc2c1-c1ccccc1"
value_observed = "> 1 µM"

[[record]]
compound = "CC(c1cc2ccccn2c1-c1ccc(CN2CCOCC2)cc1)n1nc(-c2cc(O)cc(F)c2)c2c(N)ncnc21 (stereo not drawn)"
value_observed = "> 1 µM"

[[record]]
compound = "CC(Nc1ncnc(N)c1C=O)c1cc2ccccn2c1-c1ccccn1 (stereo not drawn)"
value_observed = "> 1 µM"

[[record]]
compound = "CC(c1cc2ccccn2c1-c1ccccn1)n1nc(-c2ccc(O)c(F)c2)c2c(N)ncnc21 (stereo not drawn)"
value_observed = "> 1 µM"

[[record]]
compound = "Fc1cccc(-c2c(CNc3ncnc4[nH]cnc34)cc3ccccn23)c1"
value_observed = "> 1 µM"


Please report the recorded IC50 for CC(c1cc2ccccn2c1-c1cncs1)n1nc(-c2cc(O)cc(F)c2)c2c(N)ncnc21 (stereo not drawn) . 0.01 to 1 µM

====

Each entry below carries its recorded IC50.
Target: PI3Kγ (Homo sapiens)
Sequence (P48736 whole entry): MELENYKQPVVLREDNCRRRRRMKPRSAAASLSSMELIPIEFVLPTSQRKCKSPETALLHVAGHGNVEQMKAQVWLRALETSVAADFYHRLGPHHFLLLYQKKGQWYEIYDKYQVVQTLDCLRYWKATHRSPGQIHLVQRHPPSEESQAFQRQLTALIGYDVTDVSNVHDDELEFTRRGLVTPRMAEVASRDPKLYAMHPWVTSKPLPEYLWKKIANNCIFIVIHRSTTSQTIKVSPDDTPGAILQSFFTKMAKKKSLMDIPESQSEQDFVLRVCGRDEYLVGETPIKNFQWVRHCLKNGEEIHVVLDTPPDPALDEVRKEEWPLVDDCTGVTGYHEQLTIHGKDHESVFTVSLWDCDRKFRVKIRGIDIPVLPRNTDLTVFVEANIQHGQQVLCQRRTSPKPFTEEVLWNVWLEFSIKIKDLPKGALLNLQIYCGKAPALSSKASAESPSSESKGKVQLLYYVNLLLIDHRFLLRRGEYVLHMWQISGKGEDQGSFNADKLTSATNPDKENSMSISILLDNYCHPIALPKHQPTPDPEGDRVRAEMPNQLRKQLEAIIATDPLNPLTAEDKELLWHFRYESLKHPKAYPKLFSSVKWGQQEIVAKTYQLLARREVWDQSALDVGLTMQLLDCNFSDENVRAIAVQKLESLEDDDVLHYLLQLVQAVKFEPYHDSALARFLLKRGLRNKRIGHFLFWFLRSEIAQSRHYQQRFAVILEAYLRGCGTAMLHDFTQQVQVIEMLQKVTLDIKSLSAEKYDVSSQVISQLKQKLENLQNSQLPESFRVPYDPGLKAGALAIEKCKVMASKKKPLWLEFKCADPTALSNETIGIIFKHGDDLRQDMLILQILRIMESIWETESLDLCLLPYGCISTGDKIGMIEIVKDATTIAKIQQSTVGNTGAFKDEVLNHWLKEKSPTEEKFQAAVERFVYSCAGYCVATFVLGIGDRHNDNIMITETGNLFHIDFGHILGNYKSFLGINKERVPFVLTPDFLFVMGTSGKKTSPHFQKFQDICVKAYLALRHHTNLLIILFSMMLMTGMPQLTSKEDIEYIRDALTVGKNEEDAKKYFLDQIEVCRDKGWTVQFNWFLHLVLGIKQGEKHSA
Experiment: In vitro determination of the PI3K enzyme inhibitory activity in the cell free assay (ADP-Glo Kinase Assay), PI3Kγ
Conditions: ATP 30 μM, read-out: PI3K gamma inhibition

Solved cases (6 shown):
[[record]]
molecule = "CC(c1cc2ccccn2c1-c1cc(CN2CCOCC2)ccn1)n1nc(-c2cc(O)cc(F)c2)c2c(N)ncnc21 (stereo not shown) [Example 111]"
tested_on = "PI3Kγ (Homo sapiens)"
value_observed = "10 to 1000 nM"

[[record]]
molecule = "CC(Nc1ncnc(N)c1Br)c1cc2ccccn2c1-c1ccccn1 (stereo not shown) [Example 48]"
tested_on = "PI3Kγ (Homo sapiens)"
value_observed = "> 1000 nM"

[[record]]
molecule = "c1ccc(-c2c(CNc3ncnc4[nH]cnc34)cc3ccccn23)nc1 [Example 14]"
tested_on = "PI3Kγ (Homo sapiens)"
value_observed = "> 1000 nM"

[[record]]
molecule = "CC(Nc1ncnc(N)c1C#N)c1cc2ccccn2c1C#CCO (stereo not shown) [Example 46]"
tested_on = "PI3Kγ (Homo sapiens)"
value_observed = "10 to 1000 nM"

[[record]]
molecule = "Cc1ccn2c(-c3ccccn3)c(C(C)n3nc(-c4cc(O)cc(F)c4)c4c(N)ncnc43)cc2c1 (stereo not shown) [Example 105]"
tested_on = "PI3Kγ (Homo sapiens)"
value_observed = "> 1000 nM"

[[record]]
molecule = "Nc1ncnc2c1ncn2Cc1cc2ccccn2c1-c1ccccc1 [Example 1]"
tested_on = "PI3Kγ (Homo sapiens)"
value_observed = "> 1000 nM"


PI3Kγ (Homo sapiens) / IC50 / CC(c1cc2ccccn2c1-c1ccc(=O)n(CCN2CCOCC2)c1)n1nc(-c2cc(O)cc(F)c2)c2c(N)ncnc21 (stereo not shown) [Example 120] : value? 10 to 1000 nM

Note, next up: N#Cc1c(N)ncnc1NCc1cn2ccccc2c1-c1cccc(F)c1 [Example 28] > 1000 nM

Please give the result for CC(c1cc2cccnn2c1-c1ccccn1)n1nc(-c2cc(O)cc(F)c2)c2c(N)ncnc21 (stereo not shown) [Example 96] too. > 1000 nM

Same question for c1ccc(-c2c(CNc3ncnc4[nH]cnc34)cn3ccccc23)nc1 [Example 20] please. > 1000 nM

How about CC(c1cc2ccccn2c1-c1ccc(CN2CCOCC2)cn1)n1nc(-c2cc(O)cc(F)c2)c2c(N)ncnc21 (stereo not shown) [Example 108] ? > 1000 nM

Note, next up: CC(c1cc2ccccn2c1-c1ccccc1)n1nc(-c2cc(O)cc(F)c2)c2c(N)ncnc21 (stereo not shown) [Example 85] > 1000 nM

Entry Cc1c(N)ncnc1NC(C)c1cc2ccccn2c1-c1ccccn1 (stereo not shown) [Example 50] please > 1000 nM
